This listing pairs compounds with measured inhibition.
Assay: endothelial E-selectin expression blockers – imaging, HUVEC, immunofluorescence, MLSMR starter and 10KST1 sets, primary screen (AID 487);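 on inhibition: signal is fraction of cell area covered by stained E-selectin grains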
Conditions: HUVEC TNFalpha-induced E-selectin immunofluorescence imaging, at 2 µM; stronger effect = higher value
Value expressed in %; do not type the unit.

Please review the entries below; each comes with its answer.
[Q] Given `CCCS(=O)(=O)N1CCN(C(=O)CCC2CCCC2)CC1` , state its recorded inhibition.
[A] -18.1

[Q] Given `CC(=O)N(c1ccc(N(C(C)=O)S(=O)(=O)c2cccs2)cc1)S(=O)(=O)c1cccs1` , state its recorded inhibition.
[A] -45.8

[Q] Given `NC(=O)SCC(=O)Nc1cccc(Cl)c1` , state its recorded inhibition.
[A] -267

[Q] Given `Cc1cccn2c(=O)c3cc(C#N)c(=O)n(CCCN4CCOCC4)c3nc12` , state its recorded inhibition.
[A] -24.9

[Q] Given `O=S(=O)(CCOc1ccccc1)c1nc2ccccc2[nH]1` , state its recorded inhibition.
[A] -77.3

[Q] Given `CC(C)(C)c1ccccc1NC(=O)c1cccnc1` , state its recorded inhibition.
[A] -81.8

[Q] Given C=CCOc1ccc(C2C(C(=O)c3ccco3)=C(O)C(=O)N2Cc2cccnc2)cc1 (stereo not drawn) , state its recorded inhibition.
[A] -61.9

[Q] Given `Cc1ccc(-n2ncc3c(N4CCN(c5ccc(F)cc5)CC4)ncnc32)c(C)c1` , state its recorded inhibition.
[A] 32.4

Continuing:
[Q] Given CC1CN(CC(O)COc2ccc(C(C)C)cc2)CC(C)O1 (stereo not drawn) , state its recorded inhibition.
[A] -54.5

[Q] Given `CC(=O)OCC(=O)[C@@]1(O)CC[C@H]2[C@@H]3CCC4=CC(=O)C=C[C@]4(C)[C@H]3[C@@H](O)C[C@@]21C` , state its recorded inhibition.
[A] -93.5

====

This listing pairs compounds with measured nuclei count.
Experiment: endothelial E-selectin expression blockers – imaging, HUVEC, immunofluorescence, MLSMR starter and 10KST1 sets, primary screen (AID 487);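 on nuclei count: 100% = median nuclei count of all wells on the same plate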
Details: HUVEC TNFalpha-induced E-selectin immunofluorescence imaging, at 2 µM; measured here: cell number, toxicity
Value expressed in %; do not type the unit.

Please review the entries below; each comes with its answer.
[Q] Given `Cc1ccc(C(=O)CSc2nnc(CNc3ccc(C)cc3C)o2)cc1` , state its recorded nuclei count.
[A] 193

[Q] Given O=C(O)C1CC(=O)N(c2ccc(Br)cc2)C1 (centres undefined) , state its recorded nuclei count.
[A] 117

[Q] Given `Cc1ccc2[nH]c(=O)c(CN(CCCO)S(=O)(=O)c3c(C)ccc4nsnc34)cc2c1` , state its recorded nuclei count.
[A] 120

Continuing:
[Q] Given `Cc1ccc(OC(=O)CCc2c(C)nc3ncnn3c2C)cc1` , state its recorded nuclei count.
[A] 112

[Q] Given COC(=O)c1c(NC(=O)C2CC=CCC2C(=O)O)sc(C(N)=O)c1C (centres undefined) , state its recorded nuclei count.
[A] 113

[Q] Given `O=C(O)CCCC(=O)Nc1ccc(Br)cc1C(=O)O` , state its recorded nuclei count.
[A] 103

[Q] Given `CCOC(=O)Cc1nnc(NC(=O)CSc2nnc3c4ccccc4n(C(C)C)c3n2)s1` , state its recorded nuclei count.
[A] 90.2

====

Biological target: Voltage-gated potassium channel subunit beta-2 (Rattus norvegicus)
Experiment: inhibitors of rat Kvbeta2 reductase activity – biochemical, NADPH fluorescence, primary screen (AID 622);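 further: slope of raw intensity against log time taken from 70 to 1610 s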
Settings: recombinant KvBeta, 4-cyanobenzaldehyde reduction, at 10 µM, stronger effect = higher value
RECORDED_METRIC: fluorescence slope
In your answer, state the number alone without any accompanying words.

[Q] Given `Cc1ccc(S(=O)(=O)N(C)Cc2cc3ccccc3[nH]c2=O)cc1` , state its recorded fluorescence slope.
[A] -0.52

[Q] Given `COc1ccc(C)cc1-n1nnnc1SCC(=O)NC(=O)NCc1ccco1` , state its recorded fluorescence slope.
[A] -0.57

[Q] Given `CCn1nnnc1NCc1cccn1C` , state its recorded fluorescence slope.
[A] -0.414

[Q] Given `O=C(CCCn1c(=O)c2sccc2n(Cc2ccc(F)cc2)c1=O)NCc1ccco1` , state its recorded fluorescence slope.
[A] -0.583

[Q] Given `COc1ccccc1-c1c(C)nn2c(C)c(C(C)=O)cnc12` , state its recorded fluorescence slope.
[A] -0.611

[Q] Given CCOc1cc(C2C(C(=O)OC(C)C)=C(C)N=C3SCCC(=O)N32)ccc1OC(C)=O (centres undefined) , state its recorded fluorescence slope.
[A] -0.42

[Q] Given `Cc1cc(C)c2c(n1)sc1c(N3CCOCC3)ncnc12` , state its recorded fluorescence slope.
[A] -0.305

[Q] Given CCOc1ccc(N(CC(=O)NCC2CCCO2)S(=O)(=O)c2ccc(OC)c(OC)c2)cc1 (centres undefined) , state its recorded fluorescence slope.
[A] -0.572

The record that follows has no fluorescence slope shown yet.
[Q] Given `C[C@H](NC(=O)Nc1ccccc1F)C(=O)O` , state its recorded fluorescence slope.
[A] -0.602

====

Experiment: reduction of polyQ htt aggregates in cells – imaging, exon1htt(103Q)mCFP cells, high-content imaging, primary screen (AID 483);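 further: compound exposure lasted 3 days before fixation; percent of the per-plate median nuclei count of sample wells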
Settings: exon1htt(103Q)mCFP cell line, aggregate imaging, at 2 µM; measured here: cell count, toxicity
Where a SMILES comes first, the peptide text is derived from it. The star is where a group is joined. Boc = CC(C)(C)OC(=O)*
RECORDED_METRIC: nuclei count (%)
Value expressed in %; do not type the unit.

Please review the entries below; each comes with its answer.
[Q] Given `NC(=O)c1c(-c2ccccc2)oc2ccc(O)cc12` , state its recorded nuclei count.
[A] 103

[Q] Given `COc1cc(-c2nnc(SCC(=O)c3ccc(C)cc3)o2)cc(OC)c1OC` , state its recorded nuclei count.
[A] 87.7

[Q] Given `CC(C)NC(=O)c1ccccc1NC(=O)c1ccccc1N(C)S(C)(=O)=O` , state its recorded nuclei count.
[A] 104

[Q] Given `CCOC(=O)c1c(C)oc2ccc(O)c(CN(C)C)c12` , state its recorded nuclei count.
[A] 105

[Q] Given CS(=O)(=O)N1CCN(CC2CC3C=CC2C3)CC1 (configuration not stated) , state its recorded nuclei count.
[A] 94.8

Continuing:
[Q] Given `Cc1occc1C(=O)Nc1ccccc1NC(=O)c1ccoc1C` , state its recorded nuclei count.
[A] 87.4

[Q] Given `N#Cc1cn(CC(=O)N2CCCC2)c2ccccc12` , state its recorded nuclei count.
[A] 108

[Q] Given `C[C@]12C=CC(=O)C=C1CC[C@H]1[C@@H]3C[C@@H](O)[C@](O)(C(=O)CO)[C@@]3(C)C[C@H](O)[C@@]12F` , state its recorded nuclei count.
[A] 50.2

[Q] Given `COc1ccc(-c2cn3cc(C)ccc3n2)cc1OC` , state its recorded nuclei count.
[A] 103

[Q] Given `O=C(c1ccccc1)c1coc2ccc(O)c(CN3CCOCC3)c12` , state its recorded nuclei count.
[A] 77.4

[Q] Given `COc1ccc(S(=O)(=O)NCc2ccco2)cc1-c1nnc2c3ccccc3c(C)nn12` , state its recorded nuclei count.
[A] 101

[Q] Given O=C1CCCC2=C1C(c1ccsc1)CC(=O)N2c1ccccc1 (configuration not stated) , state its recorded nuclei count.
[A] 100

[Q] Given `O=C(C1CCN(S(=O)(=O)N2CCC3(CC2)OCCO3)CC1)N1CCOCC1` , state its recorded nuclei count.
[A] 89.1

[Q] Given `O=C1C=C(NCc2ccco2)C2(CCCCC2)O1` , state its recorded nuclei count.
[A] 97.5

[Q] Given O=C(O)C1CSC2c3ccccc3C(=O)N12 (configuration not stated) , state its recorded nuclei count.
[A] 96.3

[Q] Given `COc1ccccc1-c1nnc2sc(-c3ccc(N(C)C)cc3)nn12` , state its recorded nuclei count.
[A] 1.9

[Q] Given `CCOC(=O)CSc1nc2ccccc2n2cnnc12` , state its recorded nuclei count.
[A] 103

[Q] Given `Brc1ccc(-c2nnc3sc(CN4CCC5(CC4)OCCO5)cn23)cc1` , state its recorded nuclei count.
[A] 112

[Q] Given `C=CCn1c(=O)/c(=C/c2ccc(O)cc2)s/c1=C(/C#N)c1nnc2n1CCCCC2` , state its recorded nuclei count.
[A] 112

[Q] Given CC(C)(C)OC(=O)N1CCCC1C(=O)N1CCCC1C(=O)N1CCCC1C(=O)O (stereo not drawn) (Boc-Pro-Pro-Pro-OH; configuration not given here) , state its recorded nuclei count.
[A] 49.1

[Q] Given `Cc1ccc(C)c(Cn2c(=O)n(CCC(=O)NCc3ccco3)c(=O)c3sccc32)c1` , state its recorded nuclei count.
[A] 95.3

[Q] Given CCOc1ccc(N(C)S(=O)(=O)c2ccc3[nH]cc(C(=O)NCC4CCCO4)c(=O)c3c2)cc1 (configuration not stated) , state its recorded nuclei count.
[A] 67.5

====

Test: blockers of RIG-like receptor reporter activation – cell-based, Sendai virus stimulus, luciferase, 10K MLSCN set, TLR/RLR signaling modifier project, primary screen (AID 602276);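 further: firefly luciferase from ISG56 promoter only with Renilla not read in this screen; 0% = Sendai virus plus DMSO and 100% = medium plus DMSO without virus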
Conditions: HEK293 RL24 IRF3 luciferase reporter, at 10 µM, stronger effect = higher value
This listing pairs molecules with measured inhibition.
Value expressed in %; do not type the unit.

[Q] Given O=C1CCCC2=C1C(c1ccsc1)CC(=O)N2c1ccccc1 (stereo not given) , state its recorded inhibition.
[A] 15.9

[Q] Given `Cc1nc(NCCNC(=O)c2ccco2)c2c(C)c(C)sc2n1` , state its recorded inhibition.
[A] 12.1

[Q] Given `CCOC(=O)Cc1nnc(NC(=O)CSc2nnc3c4ccccc4n(C(C)C)c3n2)s1` , state its recorded inhibition.
[A] 18

Continuing:
[Q] Given `Cc1cc(NC(=O)c2ccccc2Oc2ccccc2)no1` , state its recorded inhibition.
[A] 12.4

[Q] Given `Cn1c(=O)oc2cc(S(=O)(=O)N3CCC(C(=O)Nc4ccc(OC(F)(F)F)cc4)CC3)ccc21` , state its recorded inhibition.
[A] 12.1
